- Tested on: Pr. mirabilis, IFO-3849
- MEASUREMENT_DESCRIPTION: Antibacterial activity (MIC), standard method of Japan Society of Chemotherapy
- Format: cell-based
- MEASUREMENT_SETUP: Proteus mirabilis, IFO3849, strain Pr. mirabilis, read-out: minimum inhibitory concentration (MIC)
Attribute: MIC

As a guide, the following entries are already answered.
Cc1c(N2C[C@H](C3(N)CC3)C(F)(F)C2)c(F)c(N)c2c(=O)c(C(=O)O)cn([C@@H]3C[C@@H]3F)c12 [compound 7] | 0.025 µg/mL
C[C@H]1COc2c(N3C[C@H](C4(N)CC4)C(F)(F)C3)c(F)cc3c(=O)c(C(=O)O)cn1c23 [compound 8] | 0.78 µg/mL
C[C@H]1COc2c(N3C[C@H](F)[C@@H](C4(N)CC4)C3)c(F)cc3c(=O)c(C(=O)O)cn1c23 [compound 6] | 0.2 µg/mL
Cc1c(N2C[C@H](F)[C@@H](C3(N)CC3)C2)c(F)c(N)c2c(=O)c(C(=O)O)cn([C@@H]3C[C@@H]3F)c12 [compound 5] | 0.025 µg/mL
COc1c(N2C[C@@H](F)[C@@H](C3(N)CC3)C2)c(F)cc2c(=O)c(C(=O)O)cn([C@@H]3C[C@@H]3F)c12 [compound 12] | 0.05 µg/mL

Turning now to a further compound:
Reported MIC for CO[C@H]1CN(c2c(F)c(N)c3c(=O)c(C(=O)O)cn([C@@H]4C[C@@H]4F)c3c2C)C[C@@H]1C1(N)CC1 [compound 4] was 0.2 µg/mL
